- System: Huh-7
- MEASUREMENT NOTES: cells
- TEST CONDITIONS: Homo sapiens, Huh-7, 72 h
MEASURED PROPERTY: IC50 (µM)

{"SMILES STRUCTURE": "CO[C@@H]1CCN(c2cc(NC(=O)N3CCCc4cc(CN5CCOC5=O)c(C=O)nc43)ncc2C#N)C1", "TARGET DESC": "Huh-7", "MEASURED PROPERTY": "IC50", "RESULT NUMBER": 0.0102}
{"SMILES STRUCTURE": "COCCNc1cc(NC(=O)N2CCCc3cc(CN4CC[C@H](OC)C4=O)c(C=O)nc32)ncc1C#N", "TARGET DESC": "Huh-7", "MEASURED PROPERTY": "IC50", "RESULT NUMBER": 0.009}
{"SMILES STRUCTURE": "CO[C@@H]1CCN(c2cc(NC(=O)N3CCCc4cc(CN5C(=O)OC[C@@H]5C)c(C=O)nc43)ncc2C#N)C1", "TARGET DESC": "Huh-7", "MEASURED PROPERTY": "IC50", "RESULT NUMBER": 0.0118}
